Data origin: patent US20160159862A1

target: α4β7 integrin on human cells (human, UniProt P13612 34-1032; P26010 20-798); assay: cell-based or functional assay
Bridge positions count the residues as written; N and C are the ends. Square brackets hold non-standard residues; d marks the D form. Bip = N[C@@H](Cc1ccc(-c2ccccc2)cc1)C(=O)O; Phe(4-F) = N[C@@H](Cc1ccc(F)cc1)C(=O)O; 2Nal = N[C@@H](Cc1ccc2ccccc2c1)C(=O)O; NMeR = CN[C@@H](CCCNC(=N)N)C(=O)O; NMeE = CN[C@@H](CCC(=O)O)C(=O)O; β3hE = N[C@@H](CCC(=O)O)CC(=O)O; Pen = CC(C)(S)[C@H](N)C(=O)O; Dap = NC[C@H](N)C(=O)O
assay endpoint: α4β7 cell (Hu) IC50

* Ac-[Pen][NMeR]SDTL[Pen][Phe(4-F)][dE][dK]-NH2 (disulfide 1-7 (inferred); also: dimer via DIG) [SEQ ID NO 107] | > 25 nM
* Ac-[Pen][NMeR]SDTL[Pen][Bip]E[dK]-NH2 (disulfide 1-7 (inferred); also: homodimer via DIG) [SEQ ID NO 134] | ≤ 10 nM
* Ac-[Pen][NMeR]SDTL[Pen][2Nal][β3hE][dK]-NH2 (disulfide 1-7 (inferred); also: homodimer via DIG) [SEQ ID NO 137] | ≤ 10 nM
* Ac-[Pen][NMeR]SDTL[Pen]W[NMeE][dK]-NH2 (disulfide 1-7 (inferred); also: homodimer via DIG linker) [SEQ ID NO 31] | > 50 nM
* Ac-[Pen][NMeR]SDTL[Pen]WE[Dap]-NH2 (disulfide 1-7 (inferred)) [SEQ ID NO 59] | > 10000 nM
